Target: T1, human protein C (PC) zymogen (human, UniProt P04070 43-197; P04070 200-461)
T1 construct: Bought
T1 sequence (P04070 43-197, chain 1 of 2): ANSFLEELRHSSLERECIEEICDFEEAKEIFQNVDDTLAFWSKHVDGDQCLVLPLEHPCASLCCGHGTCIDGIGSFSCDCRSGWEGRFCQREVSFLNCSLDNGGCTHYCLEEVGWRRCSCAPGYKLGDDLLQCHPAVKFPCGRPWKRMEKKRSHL
T1 sequence (P04070 200-461, chain 2 of 2): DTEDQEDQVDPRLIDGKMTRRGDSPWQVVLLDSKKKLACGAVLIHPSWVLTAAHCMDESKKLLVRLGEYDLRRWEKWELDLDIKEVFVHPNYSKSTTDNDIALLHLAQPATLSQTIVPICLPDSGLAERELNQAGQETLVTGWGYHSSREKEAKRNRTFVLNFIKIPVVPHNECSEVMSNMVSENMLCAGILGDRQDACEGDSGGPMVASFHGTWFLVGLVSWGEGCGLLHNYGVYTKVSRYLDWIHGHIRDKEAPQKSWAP
Experiment: ELISA screen, PC-coated wells, OD450, n=2 [Continued]
parameter.measured: binding result

- SR16983-R2-P4-C02 (VHH) VHH: QVQLVESGGGLVQAGGSLRLSCTTSGSTFSITAGGWYRQAPGKQRELVADIANDGSTTSADSVKGRFTISRDNAKNTVELQMSSLKLEDTAVYYCFVVGKSDSMPRARAYWGQGTQVTVSS: no binding
- SR16983-R3P2D01 (VHH) VHH: QLQLVESGGGLVQAGGSLRLSCAASGTTSSFVYMGWYRQAPGNQRDLVARISSDGSTNYADSVKGRFTISGDNAKNTVYLQMNSLKPEDTARYYCFYNGHVNKWGQGTQVTVSS: no binding

Origin of values: patent US20250163183A1
